# Procedure summary: Metabolic stability in mouse liver microsomes assessed as parent compound remaining preincubated for 10 mins followed by NADPH addition and measured after 30 mins by HPLC-MS/MS analysis
# Format: ADME, Microsome
# Condition parameters: time 40 min, read-out: Stability
Observed property: remaining at 0.5 h

[[record]]
smiles_structure = "O=C(Nc1cc(Cl)cc(Cl)c1)c1n[nH]c2ccc(Cl)cc12"
observed_property = "remaining at 0.5 h"
endpoint_result = "48%"


* * *

Documented pEC50 across a set of molecules
# Tested on: SARS-CoV-2
# Procedure summary: Antiviral activity against SARS-CoV-2 expressing nucleocapsid protein infected in African green monkey Vero cells assessed as inhibition of viral growth by Hoechst 33342 staining based immunofluorescence analysis
# Format: functional, organism-based
# Condition parameters: Severe acute respiratory syndrome coronavirus 2, Vero
pEC50: −log10 of the molar value.
Observed property: pEC50

[[record]]
smiles_structure = "O=C(Nc1cccc(F)c1)c1n[nH]c2ccc(Cl)cc12"
observed_property = "pEC50"
endpoint_result = "< 4.60"

[[record]]
smiles_structure = "N#Cc1ccc(NC(=O)c2n[nH]c3ccc(Cl)cc23)cc1"
observed_property = "pEC50"
endpoint_result = "< 4.60"

[[record]]
smiles_structure = "O=C(Nc1ccc(Cl)cc1)c1n[nH]c2ccc(Cl)cc12"
observed_property = "pEC50"
endpoint_result = "< 4.60"

[[record]]
smiles_structure = "O=C(Nc1cccc(C(F)(F)F)c1)c1n[nH]c2ccc(Cl)cc12"
observed_property = "pEC50"
endpoint_result = 5.55

[[record]]
smiles_structure = "O=C(NC1CCCCC1)c1n[nH]c2ccc(Cl)cc12"
observed_property = "pEC50"
endpoint_result = "< 4.60"

[[record]]
smiles_structure = "O=C(Nc1cc(Cl)cc(Cl)c1)c1n[nH]c2ccccc12"
observed_property = "pEC50"
endpoint_result = "< 4.60"

